Multi-source literature compilation: IC50 on RORc (Homo sapiens).
State the answer as a number, implicitly in nM.

// IC50 lookup, key: `CCOC(=O)c1coc(N2CCO[C@@H]([C@@]34CC[C@@H](c5cc(-c6c(F)cccc6F)nnc53)C4(C)C)C2)n1`
5

Look up IC50 for this molecule: `CC1(C)[C@H]2CC[C@]1([C@@H]1CN(CC(F)F)CCO1)c1nnc(-c3c(F)cccc3F)cc12`
356

Dear colleague, I am looking for the recorded IC50 of the following molecule: `C[C@H]1CC[C@H](c2ccccc2)S(=O)(=O)N1Cc1cc(F)c([C@H](CC2COC2)C(N)=O)cc1F`
31.8

Please look up its IC50: `CC(C)CN(c1cccc(Cl)c1)S(=O)(=O)c1ccc(O[C@@H]2CCCN(S(C)(=O)=O)C2)cc1`
164

---

Literature IC50 values, system: RORc (Homo sapiens, UniProt P51449).
The figure you give is taken to be in µM; do not add the unit.

Notebook entry, RORc (Homo sapiens, UniProt P51449) assay: IC50 of `CC1(C)[C@H]2CC[C@]1(c1cncc(-c3cnn(CC(N)=O)c3)n1)c1nnc(-c3c(F)cccc3F)cc12` = ?
0.0077

Missing value: IC50, RORc (Homo sapiens, UniProt P51449), entry `CC(C)CN(c1cccc(Cl)c1)S(=O)(=O)c1ccc(OC2CCN(S(=O)(=O)N(C)C)CC2)cc1` . Fill in?
0.191

Enter reported IC50 observed with RORc (Homo sapiens, UniProt P51449) for `CC[C@@H](O[C@@]12CC[C@@H](c3cc(-c4c(F)cccc4F)nnc31)C2(C)C)c1nnc(C)o1`
0.0241

Notebook: pull reported IC50 for RORc (Homo sapiens, UniProt P51449), entry `CC1(C)[C@H]2CC[C@]1(c1ccnc(-c3cn[nH]c3)n1)c1nnc(-c3c(F)cccc3F)cc12`
0.0057

Item: `Cc1nc([C@@]23CC[C@@H](c4cc(-c5c(F)cccc5F)nnc42)C3(C)C)co1` Test system: RORc (Homo sapiens, UniProt P51449) Read-out: IC50 Value: ?
0.202

# value lookup — system RORc (Homo sapiens, UniProt P51449), readout IC50, item `CC(=O)N1CCC[C@H]([C@@]23CC[C@@H](c4cc(-c5c(F)cccc5F)nnc42)C3(C)C)C1`
0.139

# value lookup — system RORc (Homo sapiens, UniProt P51449), readout IC50, item `Cc1coc(-c2cncc([C@@]34CC[C@@H](c5cc(-c6c(F)cccc6F)nnc53)C4(C)C)n2)n1`
0.0076

Notebook: pull reported IC50 for RORc (Homo sapiens, UniProt P51449), entry `C[C@@H](CO)NC(=O)c1cncc([C@@]23CC[C@@H](c4cc(-c5c(F)cccc5F)nnc42)C3(C)C)n1`
0.038

Any idea what IC50 came out for `CC1(C)[C@H]2CC[C@]1(c1cncc(NC(=O)NCCO)n1)c1nnc(-c3c(F)cccc3F)cc12` on RORc (Homo sapiens, UniProt P51449)?
0.0746

Enter reported IC50 observed with RORc (Homo sapiens, UniProt P51449) for `CC1(C)[C@H]2CC[C@]1(COc1ccccn1)c1nnc(-c3c(F)cccc3F)cc12`
0.126

// fetch RORc (Homo sapiens, UniProt P51449) IC50 for `CC(=O)N[C@H]1CC[C@](C#N)(c2ccc(CN3[C@@H](C)CC[C@H](c4ccccc4)S3(=O)=O)c(F)c2)CC1`
2.3

Observed IC50 on RORc (Homo sapiens, UniProt P51449) for `CC1(C)[C@@H]2CC[C@@]1(COCc1ccc(C(N)=O)cc1)c1nnc(-c3ccccc3F)cc12` , please.
0.158

Requested read-out IC50, target or system RORc (Homo sapiens, UniProt P51449), entry `CC(C)(O)c1nc(-c2ncc(Cl)c([C@@]34CC[C@@H](c5cc(-c6c(F)cccc6F)nnc53)C4(C)C)n2)no1`
0.0139
